Source of measurements: patent US20260327193A1

Test: Caco-2 permeability assay
Format: in vitro ADME
Settings: human, 10 μM test compound, pH 7.4, 37° C., 120 minutes, direction of the value not given, read-out: Caco-2 Perm
Method: Permeability Assay. […] Prior to the experiments, the integrity of the cellular monolayer was evaluated by measuring the TEER value using a volt ohm meter and STX100C96 electrode. […] After the completion of the transport experiment, the integrity of the cell monolayer was evaluated by measuring the Lucifer Yellow (LY) rejection. […]
readout_type: Papp at 2 h, 10 µM

Look over these answered cases.
N=C(N)c1ccc(CNC(=O)c2cnn(Cc3ccc(CC(N)=O)cc3)c2)cc1 [Example 18] ... < 2 ×10⁻⁶ cm/s
CC(C)(C#N)c1ccc(Cn2cc(C(=O)NCc3ccc(C(=N)N)c(F)c3)cn2)cc1 [Example 43] ... < 2 ×10⁻⁶ cm/s

Kindly give each listed record's Papp at 2 h, 10 µM.
1. N#Cc1ccn(Cc2ccc(Cn3cc(C(=O)NCc4ccc(C(=N)N)cc4)cn3)cc2)c1 [Example 26]
2. CC(C)(C#N)c1ccc(Cn2cc(C(=O)NCc3ccc(C(=N)N)cc3F)cn2)cc1 [Example 45]

Reply |
1: < 2 ×10⁻⁶ cm/s; 2: 2 to 10 ×10⁻⁶ cm/s

Dear reader, for each entry below, please note its Papp at 2 h, 10 µM.
1. N#CCCc1ccc(Cn2cnc(C(=O)NCc3ccc(C(=N)N)cc3)c2)cc1 [Example 4]
2. N#CCCc1ccc(Cn2cc(C(=O)NCc3ccc(C(=N)N)cc3)cn2)cc1 [Example 3]
3. N#CCc1ccc(Cn2cc(C(=O)NCc3ccc(C(=N)N)cc3)cn2)cc1 [Example 1]
4. COCCc1ccc(Cn2ncc(C(=O)NCc3ccc(C(=N)N)cc3)c2COC)cc1 [Example 87]

Reply |
< 2 ×10⁻⁶ cm/s
< 2 ×10⁻⁶ cm/s
< 2 ×10⁻⁶ cm/s
< 2 ×10⁻⁶ cm/s

---

target: Plasma Kallikrein (Homo sapiens, UniProt P03952); experiment: Plasma kallikrein protease inhibition assay, purified enzyme; assay type: biochemical; set-up: NS0-derived Gly20-Ala638, with a C-terminal 60-His tag; 60-His (so in the source) (C); purchased R&D Systems 2497-SE; host or cells: Mouse myeloma cell line, NS0; conditions: 10 μM Z-FR-AMC substrate, 20-minute pre-incubation, pH 8.0/8.5, room temperature, read-out: Purified PKal IC50
Sequence (P03952 391-638 limits assumed): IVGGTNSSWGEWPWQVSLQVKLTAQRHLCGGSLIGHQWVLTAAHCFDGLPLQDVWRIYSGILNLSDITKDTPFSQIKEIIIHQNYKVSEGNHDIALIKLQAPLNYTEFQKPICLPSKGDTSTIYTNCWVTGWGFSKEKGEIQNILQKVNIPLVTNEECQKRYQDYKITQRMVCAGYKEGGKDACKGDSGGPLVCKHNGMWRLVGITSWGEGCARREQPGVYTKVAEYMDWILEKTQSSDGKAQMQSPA
Sequence (P03952 20-390 partner limits assumed): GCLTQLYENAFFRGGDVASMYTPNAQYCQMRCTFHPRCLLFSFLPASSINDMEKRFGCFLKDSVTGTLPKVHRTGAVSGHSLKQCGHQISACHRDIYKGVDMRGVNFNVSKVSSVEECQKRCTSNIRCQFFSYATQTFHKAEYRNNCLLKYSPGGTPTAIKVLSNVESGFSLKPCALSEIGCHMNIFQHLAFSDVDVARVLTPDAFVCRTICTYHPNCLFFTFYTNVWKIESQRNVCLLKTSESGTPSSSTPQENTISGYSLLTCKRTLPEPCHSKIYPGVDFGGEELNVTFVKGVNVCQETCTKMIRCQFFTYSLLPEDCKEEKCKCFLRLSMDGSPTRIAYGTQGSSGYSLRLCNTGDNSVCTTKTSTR
pIC50: −log10 of the molar value.
readout_type: pIC50

For each of the compounds below, state pIC50.
1. COCc1c(C(=O)NCc2ccc(C(=N)N)cc2)cnn1Cc1ccc(CC#N)cc1
2. N#Cc1cccc(Cc2ccc(Cn3cc(C(=O)NCc4ccc(C(=N)N)cc4F)cn3)cc2)c1
3. CC(C)(C#N)c1ccc(Cn2cnc(C(=O)NCc3ccc(C(=N)N)cc3)c2)cc1

Reply |
1. 7.00 to 8.00
2. > 9.00
3. 8.00 to 9.00

Fill in pIC50 for each of the 6 compounds listed.
1. N#CCc1ccc(Cc2cc(C(=O)NCc3ccc(C(=N)N)cc3)sn2)cc1
2. COCCc1ccc(Cn2cc(C(=O)NCc3ccc(C(=N)N)c(F)c3)cn2)cc1
3. N#CCCc1ccc(Cn2cnc(C(=O)NCc3ccc(C(=N)N)cc3)c2)cc1
4. COCCc1cccc(Cn2cc(C(=O)NCc3ccc(C(=N)N)cc3)cn2)c1
5. CC(C)(C#N)c1ccc(Cn2ncc(C(=O)NCc3ccc(C(=N)N)cc3)c2C2CC2)cc1
6. N#CCc1ccc(Cn2cnc(C(=O)NCc3ccc(C(=N)N)cc3)c2)cc1

Reply |
["8.00 to 9.00", "8.00 to 9.00", "> 9.00", "8.00 to 9.00", "7.00 to 8.00", "8.00 to 9.00"]

State recorded pIC50 for all listed compounds.
1. N=C(N)c1ccc(CNC(=O)c2cnn(Cc3ccc(CO)cc3)c2)cc1
2. COc1cc(CNC(=O)c2cnn(Cc3ccc(C(C)(C)C#N)cc3)c2)cc(F)c1C(=N)N
3. Cc1c(C(=O)NCc2ccc(C(=N)N)cc2)cnn1Cc1ccc(C(C)(C)C#N)cc1
4. CC(C)(C#N)c1ccc(Cn2cc(C(=O)NCc3ccc(C(=N)N)c(F)c3)cn2)cc1
5. CNC(=O)Cc1ccc(Cn2cc(C(=O)NCc3ccc(C(=N)N)cc3)cn2)cc1
6. N#Cc1ccn(-c2ccc(Cn3cc(C(=O)NCc4ccc(C(=N)N)cc4)cn3)cc2)c1
7. N#CCCc1ccc(Cn2cc(C(=O)NCc3ccc(C(=N)N)cc3)cn2)cc1

Reply |
["8.00 to 9.00", "7.00 to 8.00", "> 9.00", "8.00 to 9.00", "> 9.00", "> 9.00", "> 9.00"]

Take each entry in turn and give its pIC50.
1. N#Cc1ccc(Cc2ccc(Cn3cc(C(=O)NCc4ccc(C(=N)N)cc4)cn3)cc2)cc1
2. N#CCc1ccc(Cn2ncc(C(=O)NCc3ccc(C(=N)N)cc3)c2C2CC2)cc1

Reply |
1: > 9.00; 2: 7.00 to 8.00

Could you tell me pIC50 for each of these compounds? They are listed below.
1. CC(C)(C#N)c1ccc(Cn2cc(C(=O)NCc3ccc(C(=N)N)cc3F)cn2)cc1
2. COCc1c(C(=O)NCc2ccc(C(=N)N)cc2)cnn1Cc1ccc(C(C)(C)C#N)cc1
3. N#CCc1ccc(Cn2cc(C(=O)NCc3ccc(C(=N)N)cc3)cn2)cc1
4. CC(C)(C#N)c1ccc(Cn2cc(C(=O)NCc3ccc(C(=N)N)cc3)cn2)cc1

Reply |
1: > 9.00; 2: 7.00 to 8.00; 3: > 9.00; 4: > 9.00

---

test: Caco-2 permeability assay; type: in vitro ADME; details: human, 10 μM test compound, pH 7.4, 37° C., 120 minutes, direction of the value not given, read-out: Caco-2 Perm
For each record, write down the corresponding Papp at 2 h, 10 µM.

Example results:
COCCc1ccc(Cn2cc(C(=O)NCc3ccc(C(=N)N)cc3)cn2)cc1 ... 2 to 10 ×10⁻⁶ cm/s
CN(C)C(=O)Cc1ccc(Cn2cc(C(=O)NCc3ccc(C(=N)N)cc3)cn2)cc1 ... < 2 ×10⁻⁶ cm/s
N#CCc1ccc(Cn2cnc(C(=O)NCc3ccc(C(=N)N)cc3)c2)cc1 ... 2 to 10 ×10⁻⁶ cm/s
CNC(=O)Cc1ccc(Cn2cc(C(=O)NCc3ccc(C(=N)N)cc3)cn2)cc1 ... < 2 ×10⁻⁶ cm/s
N#Cc1cccc(Cc2ccc(Cn3cc(C(=O)NCc4ccc(C(=N)N)cc4)cn3)cc2)c1 ... < 2 ×10⁻⁶ cm/s

For every item in the list below, what is its measured Papp at 2 h, 10 µM?
1. N#Cc1cccc(Cc2ccc(Cn3cc(C(=O)NCc4ccc(C(=N)N)c(F)c4)cn3)cc2)c1
2. N#Cc1cccc(Cc2ccc(Cn3cc(C(=O)NCc4ccc(C(=N)N)cc4F)cn3)cc2)c1
3. COc1cc(CNC(=O)c2cnn(Cc3ccc(C(C)(C)C#N)cc3)c2)cc(F)c1C(=N)N
4. CC(C)(C#N)c1ccc(Cn2cnc(C(=O)NCc3ccc(C(=N)N)cc3)c2)cc1
5. CC(C)(C#N)c1ccc(Cn2cc(C(=O)NCc3ccc(C(=N)N)cc3)cn2)cc1

Reply |
1: < 2 ×10⁻⁶ cm/s; 2: < 2 ×10⁻⁶ cm/s; 3: < 2 ×10⁻⁶ cm/s; 4: < 2 ×10⁻⁶ cm/s; 5: < 2 ×10⁻⁶ cm/s

---

Field: pIC50. Provide a value for each of the compounds that follow.
target: Plasma Kallikrein (Homo sapiens, UniProt P03952); experiment: Plasma kallikrein activity in pooled human plasma; assay type: biochemical; set-up: Plasma Kallikrein activity was also measured in pooled human plasma; from tissue; host or cells: pooled human plasma; settings: Z-FR-AMC substrate, activated with 10% Actin FS solution, 10 minutes, read-out: Pooled Human Plasma PKal IC50
pIC50: −log10 of the molar value.

COCCc1cccc(Cn2cc(C(=O)NCc3ccc(C(=N)N)cc3)cn2)c1 ... > 7.00

// each compound listed below needs its pIC50
1. CC(C)(C#N)c1ccc(Cn2cc(C(=O)NCc3ccc(C(=N)N)cc3F)cn2)cc1
2. CC(C)(C#N)c1ccc(Cn2cc(C(=O)NCc3cc(F)c(C(=N)N)c(F)c3)cn2)cc1
3. N#CCc1ccc(Cn2cc(C(=O)NCc3ccc(C(=N)N)c(F)c3)cn2)cc1
4. COCc1ccc(Cn2cc(C(=O)NCc3ccc(C(=N)N)cc3)cn2)cc1

Reply |
["> 7.00", "< 6.00", "6.00 to 7.00", "> 7.00"]

---

target: Plasma Kallikrein (Homo sapiens); experiment: Plasma kallikrein protease inhibition assay, purified enzyme; assay type: biochemical; set-up: NS0-derived Gly20-Ala638, with a C-terminal 60-His tag; 60-His (so in the source) (C); purchased R&D Systems 2497-SE; host or cells: Mouse myeloma cell line, NS0; settings: 10 μM Z-FR-AMC substrate, 20-minute pre-incubation, pH 8.0/8.5, room temperature, read-out: Purified PKal IC50
readout_type: IC50

CC(C)(C#N)c1ccc(Cn2cc(C(=O)NCc3cc(F)c(C(=N)N)c(F)c3)cn2)cc1 [Example 44] ... > 100 nM
N=C(N)c1ccc(CNC(=O)c2cnn(Cc3ccc(CC(N)=O)cc3)c2)cc1 [Example 18] ... 1 to 10 nM
COCCc1ccc(Cn2ncc(C(=O)NCc3ccc(C(=N)N)cc3)c2COC)cc1 [Example 87] ... 10 to 100 nM
COCCc1ccc(Cn2cc(C(=O)NCc3ccc(C(=N)N)cc3)cn2)cc1 [Example 15] ... < 1 nM
N#Cc1ccc(-c2ccc(Cn3cc(C(=O)NCc4ccc(C(=N)N)cc4)cn3)cc2)cc1 [Example 13] ... < 1 nM

# next compound below
Ask | # value lookup — system Plasma Kallikrein (Homo sapiens), readout IC50, item COCc1c(C(=O)NCc2ccc(C(=N)N)c(F)c2)cnn1Cc1ccc(CC#N)cc1 [Example 75]
Reply | > 100 nM
